system: hGIPR (Homo sapiens, UniProt P48546)
Construct: expressed in transfected cells; host or cells: CHO cells carrying a CRE-luciferase reporter gene
Sequence (P48546 22-466): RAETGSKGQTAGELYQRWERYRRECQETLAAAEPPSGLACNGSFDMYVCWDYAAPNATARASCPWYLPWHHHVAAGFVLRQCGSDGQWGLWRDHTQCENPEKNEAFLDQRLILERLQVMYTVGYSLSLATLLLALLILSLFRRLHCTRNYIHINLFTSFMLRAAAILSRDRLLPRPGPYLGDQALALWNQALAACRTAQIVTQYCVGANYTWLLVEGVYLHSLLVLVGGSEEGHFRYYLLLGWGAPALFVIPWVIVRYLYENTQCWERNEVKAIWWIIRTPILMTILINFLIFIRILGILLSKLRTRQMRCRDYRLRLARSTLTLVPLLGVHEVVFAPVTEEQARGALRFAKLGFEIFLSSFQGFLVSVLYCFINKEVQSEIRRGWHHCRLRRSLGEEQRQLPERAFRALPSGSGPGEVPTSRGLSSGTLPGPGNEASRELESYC
assay procedure: hGIPR CreLuc reporter gene assay in 0.5% and 100% plasma
Type: cell-based
condition context: CreLuc reporter gene assay, 0.5% human plasma; read-out: hGIPR 0.5% hP
Starred links: 1 amine or outer side, 2 acyl side, 3 side chain; linkers in the order of their positions; H or OH if unused. Non-standard residues stand in square brackets, D forms with d. Groups on a side chain read outwards from the residue. *: point of attachment. C20 diacid = O=C(O)CCCCCCCCCCCCCCCCCCC(=O)*; C18 diacid = O=C(O)CCCCCCCCCCCCCCCCC(=O)*; γGlu = O=C(O)[C@H](CCC(=O)[*:2])N[*:1]; εLys = N[C@@H](CCCCN[*:1])C(=O)[*:2]; AEEA = NCCOCCOCC(=O)O; Aib = CC(C)(N)C(=O)O; Ahx = NCCCCCC(=O)O
I'd appreciate it if you could supply pEC50 values for the items below.
# reply with the number alone; pEC50 is -log10 of concentration in mol/L

Fill in: pEC50 of H-Y[Aib]EGTFTSDYSI[Aib]LEKQAQ[Aib]AFVQWLIK([εLys-γGlu-γGlu-γGlu-γGlu-γGlu-γGlu-C20 diacid])GGPSSYVSLRHYYNWLTRQRY-NH2 [Compound 15] is ___
9.49

Fill in: pEC50 of H-Y[Aib]EGTFTSDYSI[Aib]LEKQAQ[Aib]AFVEWLIK([εLys-γGlu-γGlu-γGlu-γGlu-γGlu-γGlu-C20 diacid])GGPSSGAS[Aib]RHY[Aib]NR[Aib]TRQRY-NH2 [Compound 4] is ___
9.60

Fill in: pEC50 of H-Y[Aib]EGTFTSDYSI[Aib]LEKQAQ[Aib]AFVEWLIK([εLys-γGlu-γGlu-γGlu-γGlu-γGlu-γGlu-C20 diacid])GGPSSGASLRHYYN[Aib]LTRQRY-NH2 [Compound 218] is ___
9.44

Fill in: pEC50 of H-Y[Aib]EGTFTSDYSI[Aib]LEKQAQ[Aib]AFVEWLIK([εLys-γGlu-γGlu-γGlu-γGlu-γGlu-C18 diacid])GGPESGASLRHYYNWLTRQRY-NH2 [Compound 152] is ___
9.40

Fill in: pEC50 of H-Y[Aib]EGTFTSDYSI[Aib]LEKEAQ[Aib]KFVEWLIK([εLys-γGlu-γGlu-γGlu-γGlu-γGlu-γGlu-C20 diacid])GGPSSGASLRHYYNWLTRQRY-NH2 [Compound 46] is ___
9.70

Fill in: pEC50 of H-Y[Aib]EGTFTSDYSI[Aib]LEKQAQ[Aib]AFVQWLIK([εLys-γGlu-γGlu-γGlu-γGlu-γGlu-C20 diacid])GGPSEYASLRHYYNWLTRQRY-NH2 [Compound 189] is ___
9.51

Fill in: pEC50 of H-Y[Aib]EGTFTSDYSI[Aib]LEKQAQ[Aib]AFVEWLIK([Ahx-γGlu-γGlu-γGlu-γGlu-γGlu-C20 diacid])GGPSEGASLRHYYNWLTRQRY-NH2 [Compound 301] is ___
9.24

Fill in: pEC50 of H-Y[Aib]EGTFTSDYSI[Aib]LEKQAQ[Aib]AFVQWLIK([εLys-γGlu-γGlu-γGlu-γGlu-γGlu-γGlu-C18 diacid])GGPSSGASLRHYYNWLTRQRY-NH2 [Compound 170] is ___
9.62

Fill in: pEC50 of H-Y[Aib]EGTFTSDYSI[Aib]LEKQAQ[Aib]AFIEWLIK([AEEA-AEEA-γGlu-γGlu-γGlu-γGlu-C20 diacid])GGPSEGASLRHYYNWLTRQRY-NH2 [Compound 231] is ___
9.48

Fill in: pEC50 of H-Y[Aib]EGTFTSDYSI[Aib]LEKQAQ[Aib]EFVQWLIK([εLys-γGlu-γGlu-γGlu-γGlu-γGlu-C18 diacid])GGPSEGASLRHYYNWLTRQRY-NH2 [Compound 154] is ___
9.40
